target: human plasma kallikrein (human, UniProt P03952 20-390; P03952 391-638); assay: cell-based or functional assay
Sequence (P03952 20-390, chain 1 of 2): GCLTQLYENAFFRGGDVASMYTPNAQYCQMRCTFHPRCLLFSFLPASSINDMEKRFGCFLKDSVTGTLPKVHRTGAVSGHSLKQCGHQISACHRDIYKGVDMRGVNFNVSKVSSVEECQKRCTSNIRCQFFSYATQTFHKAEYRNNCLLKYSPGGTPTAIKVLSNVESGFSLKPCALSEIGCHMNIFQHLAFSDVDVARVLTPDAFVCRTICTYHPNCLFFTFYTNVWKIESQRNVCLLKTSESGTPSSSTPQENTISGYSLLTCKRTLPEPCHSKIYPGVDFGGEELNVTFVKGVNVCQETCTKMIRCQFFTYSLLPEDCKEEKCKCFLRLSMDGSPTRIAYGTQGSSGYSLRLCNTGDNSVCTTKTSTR
Sequence (P03952 391-638, chain 2 of 2): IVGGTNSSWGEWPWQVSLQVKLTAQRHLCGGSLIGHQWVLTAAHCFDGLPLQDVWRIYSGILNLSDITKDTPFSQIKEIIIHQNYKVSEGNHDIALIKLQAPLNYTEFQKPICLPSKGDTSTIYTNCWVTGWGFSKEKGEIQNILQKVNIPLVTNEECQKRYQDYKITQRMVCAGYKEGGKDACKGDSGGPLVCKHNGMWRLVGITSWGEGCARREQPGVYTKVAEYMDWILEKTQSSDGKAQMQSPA

binder | % inhibition at 10 nM (%)
M197-H11 (Fab, V domains shown) VH: EVQLLESGGGLVQPGGSLRLSCAASGFTFSIYNMIWVRQAPGKGLEWVSSIYPSGGWTTYADSVKGRFTISRDNSKNTLYLQMNSLRAEDTAVYYCAYRRTGIPRRDAFDIWGQGTMVTVSS VL: DIQMTQSPSTLSASVGDRVTITCRASQSISSWLAWYQQKPGKAPNLLIYKASTLESGVPSRFSGSGSGTEFTLTISSLQPDDFATYYCQQYNTYWTFGQGTKVEIK | 92.9
M198-C05 (Fab, V domains shown) VH: EVQLLESGGGLVQPGGSLRLSCAASGFTFSRYKMYWVRQAPGKGLEWVSVIGPSGGATFYADSVKGRFTISRDNSKNTLYLQMNSLRAEDTAVYYCAYRRTGIPRRDAFDIWGQGTMVTVSS VL: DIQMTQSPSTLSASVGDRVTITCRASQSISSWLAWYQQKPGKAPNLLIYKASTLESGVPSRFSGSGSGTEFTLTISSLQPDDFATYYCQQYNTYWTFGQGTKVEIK | 83.9
